molecular target: Human recombinant DHX9 protein (Homo sapiens (Human)); test: DHX9 ATPase assay (ADP-Glo); type: biochemical
Each entry below carries its recorded DHX9 Biochemical Max Inhibition.
All answers are understood in %, so give the number only.

response.value for `COCc1sc(C(=O)Nc2cc(Cl)cc(NS(C)(=O)=O)c2)cc1-c1ccccn1` (field: DHX9 Biochemical Max Inhibition) = 84.6

The reported DHX9 Biochemical Max Inhibition of the compound `CS(=O)(=O)Nc1cc(Cl)cc(NC(=O)c2cc(-c3ncc(C(F)(F)F)cc3F)cs2)c1` was 65.3

compound `CS(=O)(=O)Nc1cc(F)cc(NC(=O)c2cc(Br)[nH]n2)c1` , DHX9 Biochemical Max Inhibition observed: 64.1

Just so you know, measured DHX9 Biochemical Max Inhibition for `CS(=O)(=O)Nc1cc(Cl)cc(NC(=O)c2cnn(-c3ncccc3OCc3cccc(O)c3)c2)c1` came out at 72.3

Recorded result, `CS(=O)(=O)Nc1cc(Br)cc(NC(=O)c2cnn(-c3cc(C#N)ccc3OCc3ccccc3)c2)c1` , DHX9 Biochemical Max Inhibition: 54

Value of measured DHX9 Biochemical Max Inhibition for the entry `Cn1cc(C(=O)Nc2cc(Cl)cc(NS(C)(=O)=O)c2)cc1-c1ccc(N2CCOCC2)cn1` : 71.4

DHX9 Biochemical Max Inhibition measured on `Cc1cccnc1-c1cc(C(=O)Nc2cc(Cl)cc(NS(C)(=O)=O)c2)cn1CC(F)F` = 66.8

Measured DHX9 Biochemical Max Inhibition of `CS(=O)(=O)Nc1cc(Br)cc(NC(=O)c2cccc(-n3cccn3)c2)c1` : 55.8

// recorded DHX9 Biochemical Max Inhibition for `COc1cnc(-c2cc(C(=O)Nc3cc(Cl)cc(NS(C)(=O)=O)c3)sc2C)c(F)c1` : 84.3

Query `CS(=O)(=O)Nc1cc(Cl)cc(NC(=O)c2cnn(-c3ncccc3S(C)(=O)=O)c2)c1` yields DHX9 Biochemical Max Inhibition of 73.4

* * *

molecular target: Human recombinant DHX9 protein (Homo sapiens (Human)); test: DHX9 ATPase assay (ADP-Glo); format: biochemical
Observable: DHX9 Biochemical Max Inhibition
Could you respond with only the numeric value?

What the record says about `Cc1cc(C(=O)Nc2cc(Cl)cc(NS(C)(=O)=O)c2)cn1-c1ncc(N2CC(F)(F)C2)cc1C#N` : DHX9 Biochemical Max Inhibition is 99.9

Please fill in: DHX9 Biochemical Max Inhibition reported for `Cc1sc(C(=O)Nc2cc(Cl)cc(NS(C)(=O)=O)c2)cc1-c1ncc(OC(C)(C)CO)cn1` = 71.3

Now, please, on to the next molecule.
DHX9 Biochemical Max Inhibition for `Cc1sc(C(=O)Nc2cc(Cl)cc(NS(C)(=O)=O)c2)cc1-c1ncc(F)cc1N1CCN(S(C)(=O)=O)CC1` is 47.4

* * *

molecular target: Human recombinant DHX9 protein (Homo sapiens (Human), UniProt Q08211); experiment: DHX9 ATPase assay (ADP-Glo); assay type: biochemical
Sequence (Q08211 whole entry): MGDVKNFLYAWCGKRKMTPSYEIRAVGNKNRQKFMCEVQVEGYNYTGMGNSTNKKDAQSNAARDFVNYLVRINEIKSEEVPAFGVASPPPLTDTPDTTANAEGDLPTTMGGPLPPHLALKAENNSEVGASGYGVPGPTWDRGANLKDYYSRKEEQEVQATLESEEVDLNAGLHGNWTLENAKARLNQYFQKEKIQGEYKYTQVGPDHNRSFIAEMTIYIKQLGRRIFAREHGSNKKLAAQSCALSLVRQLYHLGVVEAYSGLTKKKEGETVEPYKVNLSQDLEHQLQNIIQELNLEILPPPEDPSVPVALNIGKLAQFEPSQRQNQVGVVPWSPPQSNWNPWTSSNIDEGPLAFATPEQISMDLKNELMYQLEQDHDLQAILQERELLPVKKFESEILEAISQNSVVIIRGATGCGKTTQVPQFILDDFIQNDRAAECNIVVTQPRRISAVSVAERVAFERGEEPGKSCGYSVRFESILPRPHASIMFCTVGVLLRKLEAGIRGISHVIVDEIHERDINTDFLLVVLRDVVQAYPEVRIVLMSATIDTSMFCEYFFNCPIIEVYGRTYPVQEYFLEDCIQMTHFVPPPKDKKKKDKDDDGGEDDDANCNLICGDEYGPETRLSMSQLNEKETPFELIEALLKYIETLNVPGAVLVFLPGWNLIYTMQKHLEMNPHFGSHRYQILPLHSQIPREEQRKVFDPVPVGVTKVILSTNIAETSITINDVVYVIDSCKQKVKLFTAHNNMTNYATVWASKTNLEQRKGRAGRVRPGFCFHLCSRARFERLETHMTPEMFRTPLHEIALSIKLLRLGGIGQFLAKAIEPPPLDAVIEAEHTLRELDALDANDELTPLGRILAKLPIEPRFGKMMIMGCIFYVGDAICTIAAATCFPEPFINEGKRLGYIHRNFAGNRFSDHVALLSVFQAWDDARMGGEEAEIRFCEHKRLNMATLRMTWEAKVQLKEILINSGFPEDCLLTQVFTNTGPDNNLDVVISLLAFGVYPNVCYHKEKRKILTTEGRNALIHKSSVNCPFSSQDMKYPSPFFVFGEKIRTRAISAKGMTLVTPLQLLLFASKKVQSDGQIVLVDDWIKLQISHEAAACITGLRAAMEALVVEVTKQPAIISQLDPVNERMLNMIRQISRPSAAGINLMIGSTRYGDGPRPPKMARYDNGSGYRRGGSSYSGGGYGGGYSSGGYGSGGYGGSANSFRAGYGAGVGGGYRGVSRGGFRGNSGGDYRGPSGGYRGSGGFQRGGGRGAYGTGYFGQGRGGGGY
# maps each entry to its DHX9 Biochemical Max Inhibition
Please respond with just the number, no unit label.

Reported DHX9 Biochemical Max Inhibition ( CN1CC(Oc2cnc(-c3cc(C(=O)Nc4cc(Cl)cc(NS(C)(=O)=O)c4)cn3CC(F)(F)F)nc2)C1 [Example 613] ) = 70.3

Per the records, this compound ( COC(=O)N1CCN(c2ccc(-c3cc(C(=O)Nc4cc(Cl)cc(NS(C)(=O)=O)c4)cn3C)nc2)CC1 [Example 596] ) has DHX9 Biochemical Max Inhibition equal to 72.2

---
According to the records, this compound Cc1sc(C(=O)Nc2cc(Cl)cc(NS(C)(=O)=O)c2)cc1-c1ncccc1OC(C)c1cncc(F)c1 (single isomer, unassigned) [Example 631] displays DHX9 Biochemical Max Inhibition of 64.4

Lookup result for CCS(=O)(=O)Nc1cc(Cl)cc(NC(=O)c2cc(-c3ncc(OC(C)C)cn3)c(C)s2)c1 [Example 565] ; measured DHX9 Biochemical Max Inhibition: 60

DHX9 Biochemical Max Inhibition reported for this compound Cn1cc(C(=O)Nc2cc(Cl)cc(NS(C)(=O)=O)c2)cc1-c1ncc(N2CC(F)C2)cn1 [Example 598] : 72.1

* * *

molecular target: Human recombinant DHX9 protein (Homo sapiens (Human)); assay: DHX9 ATPase assay (ADP-Glo); assay type: biochemical
Given measured DHX9 Biochemical Max Inhibition, output Fulfilled if it is greater than or equal to 70 and Not fulfilled if not.

Answered examples (3):
# check: DHX9 Biochemical Max Inhibition of CCS(=O)(=O)Nc1cc(Cl)cc(NC(=O)c2cc(-c3ncc(N4CC(F)(F)C4)cc3F)n(C)c2)c1 [Example 517] is greater than or equal to 70
Not fulfilled

Kindly determine if DHX9 Biochemical Max Inhibition recorded for CS(=O)(=O)Nc1cc(Cl)cc(NC(=O)c2cc(C(=O)N3CCN(CC(F)(F)F)CC3)n(-c3ccccn3)c2)c1 [Example 649] is above or exactly 70.
Not fulfilled

API: above_or_equal(metric=DHX9 Biochemical Max Inhibition, cutoff=70) for item Cc1cc(N2CC(F)(F)C2)cnc1-n1cc(C(=O)Nc2cc(Cl)cc(NS(C)(=O)=O)c2)cc1C [Example 419]
Fulfilled

Now take the following compound into account.
Kindly determine if DHX9 Biochemical Max Inhibition recorded for COCc1ccc(-n2cc(C(=O)Nc3cc(Cl)cc(NS(C)(=O)=O)c3)cc2C)nc1 [Example 447] is above or exactly 70.
Fulfilled

* * *

molecular target: Human recombinant DHX9 protein (Homo sapiens (Human)); assay: DHX9 ATPase assay (ADP-Glo); type: biochemical
Field: label. Allowed values: Y (DHX9 Biochemical Max Inhibition < 60%) or N (DHX9 Biochemical Max Inhibition >= 60%).

Check out these entries, answers already filled in.
For Cn1nc(C(=O)Nc2cc(Cl)cc(NS(C)(=O)=O)c2)cc1-c1ccccc1OCc1ccccc1 [Example 138] , is the recorded DHX9 Biochemical Max Inhibition below the cut-off of 60%?
Y

In plain terms, does Cc1sc(C(=O)Nc2cc(Cl)cc(NS(C)(=O)=O)c2)cc1-c1ncccc1CC(=O)N(C)C [Example 385] come in under 60% for DHX9 Biochemical Max Inhibition?
N

---
Does CS(=O)(=O)Nc1cc(Cl)cc(NC(=O)c2cc(Br)cs2)c1 [Example 241] have DHX9 Biochemical Max Inhibition strictly under 60%?
N

For this compound, is DHX9 Biochemical Max Inhibition lower than 60%? CCS(=O)(=O)Nc1cc(Cl)cc(NC(=O)c2cc(-c3cccnc3)cs2)c1 [Example 110]
Y

In plain terms, does CS(=O)(=O)Nc1cc(Cl)cc(NC(=O)c2cnn(-c3ccc(C4CCOCC4)cn3)c2)c1 [Example 190] come in under 60% for DHX9 Biochemical Max Inhibition?
N

hey, is DHX9 Biochemical Max Inhibition for CCS(=O)(=O)Nc1cc(Cl)cc(NC(=O)c2cc(C)n(-c3ccc(N4CCOCC4)cn3)c2)c1 [Example 249] lower than 60% or not?
N

Decide: DHX9 Biochemical Max Inhibition of CS(=O)(=O)Nc1cc(Cl)cc(NC(=O)c2cc(-c3ccc(N4CC5(COC5)C4)cn3)n(CC(F)(F)F)c2)c1 [Example 278] strictly below 60%?
N

Quick check: does CS(=O)(=O)Nc1cc(Cl)cc(NC(=O)c2cnn(-c3ncccc3OCc3cc(F)cc(F)c3)c2)c1 [Example 187] have DHX9 Biochemical Max Inhibition under 60%?
N

is_below(DHX9 Biochemical Max Inhibition, 60%) for CS(=O)(=O)Nc1cc(Cl)cc(NC(=O)c2cnn(-c3cc(N4CCNCC4)ccn3)c2)c1 [Example 147] ?
N

Field: below-cutoff. Rule: recorded DHX9 Biochemical Max Inhibition strictly less than 60%. Subject: CS(=O)(=O)Nc1cc(Cl)cc(NC(=O)c2cc3ncccc3s2)c1 [Example 289]
N

Lab note: confirm whether the reported DHX9 Biochemical Max Inhibition for this compound is below 60%, equality not counting. compound: Cc1cccnc1-c1nc(C(=O)Nc2cc(Br)cc(NS(C)(=O)=O)c2)cn1C [Example 96]
Y

Identify whether the compound CCc1sc(C(=O)Nc2cc(Cl)cc(NS(C)(=O)=O)c2)cc1-c1ccccn1 [Example 232] records DHX9 Biochemical Max Inhibition below 60%.
N

Threshold test, DHX9 Biochemical Max Inhibition < 60%: CCOc1cnc(-c2cc(C(=O)Nc3cc(Cl)cc(NS(C)(=O)=O)c3)sc2C)nc1 [Example 335]
N

* * *

biological target: Human recombinant DHX9 protein (Homo sapiens (Human)); experiment: DHX9 ATPase assay (ADP-Glo); conditions: read-out: DHX9 Biochemical Inflection Point
Observable: IC50 (nM)
Supply the numeric figure in nM, leaving out any unit text.

Examples with answers:
The measured IC50 associated with `CCOc1cnc(-c2cc(C(=O)Nc3cc(Cl)cc(NS(C)(=O)=O)c3)sc2C)nc1` reads 10.7

`Cn1cc(C(=O)Nc2cc(Cl)cc(NS(C)(=O)=O)c2)cc1-c1ccc(Cl)cn1` yielded IC50 of 28.5

Looking up `CCc1sc(C(=O)Nc2cc(Cl)cc(NS(C)(=O)=O)c2)cc1-c1ccccn1` , I found its IC50 recorded as 20.2

// IC50 value for `Cn1cc(C(=O)Nc2cc(Cl)cc(NS(C)(=O)=O)c2)cc1-c1ncc(N2CCC(F)(F)C2)cc1F` : 43.3

Lab note: measured IC50 of `CSc1cnc(-n2cc(C(=O)Nc3cc(Cl)cc(NS(C)(=O)=O)c3)cc2C)nc1` was 53.9

Sample `CS(=O)(=O)Nc1cc(Cl)cc(NC(=O)c2cc(-c3ccccc3)c[nH]2)c1` ; IC50 observed: 395

// IC50 value for `Cc1sc(C(=O)Nc2cc(Cl)cc(NS(C)(=O)=O)c2)cc1-c1ncc(N(C)S(C)(=O)=O)cn1` : 25.2

Others:
Measured IC50 of `COC1CCN(c2ccc(-c3cc(C(=O)Nc4cc(Cl)cc(NS(C)(=O)=O)c4)cn3C)nc2)CC1` : 1.6
